SYSTEM: T1, recombinant human C1r2s2 Flag/His tetramer (human, UniProt P09871 16-688; P00736 18-705)
T1 construct: whole entries named; also called hc1r2s2; rC1r2s2
T1 chain 1: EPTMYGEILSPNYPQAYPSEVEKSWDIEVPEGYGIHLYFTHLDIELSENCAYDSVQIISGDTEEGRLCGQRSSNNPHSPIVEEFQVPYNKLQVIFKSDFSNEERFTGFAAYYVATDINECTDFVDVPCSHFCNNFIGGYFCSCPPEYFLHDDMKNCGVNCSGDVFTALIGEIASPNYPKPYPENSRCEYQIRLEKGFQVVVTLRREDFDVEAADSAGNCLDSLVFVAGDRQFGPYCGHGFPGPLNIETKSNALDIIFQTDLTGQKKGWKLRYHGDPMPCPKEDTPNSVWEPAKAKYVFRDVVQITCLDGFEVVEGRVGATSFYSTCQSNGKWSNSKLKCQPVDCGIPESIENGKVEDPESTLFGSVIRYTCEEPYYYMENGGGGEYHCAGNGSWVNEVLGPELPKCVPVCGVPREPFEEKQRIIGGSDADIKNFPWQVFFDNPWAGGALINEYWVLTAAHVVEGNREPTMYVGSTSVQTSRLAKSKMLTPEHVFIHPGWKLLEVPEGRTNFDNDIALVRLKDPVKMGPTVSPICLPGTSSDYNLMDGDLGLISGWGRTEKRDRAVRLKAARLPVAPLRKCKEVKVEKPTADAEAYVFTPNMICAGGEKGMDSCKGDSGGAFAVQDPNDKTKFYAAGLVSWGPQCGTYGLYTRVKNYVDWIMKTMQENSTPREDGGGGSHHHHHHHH
T1 chain 2: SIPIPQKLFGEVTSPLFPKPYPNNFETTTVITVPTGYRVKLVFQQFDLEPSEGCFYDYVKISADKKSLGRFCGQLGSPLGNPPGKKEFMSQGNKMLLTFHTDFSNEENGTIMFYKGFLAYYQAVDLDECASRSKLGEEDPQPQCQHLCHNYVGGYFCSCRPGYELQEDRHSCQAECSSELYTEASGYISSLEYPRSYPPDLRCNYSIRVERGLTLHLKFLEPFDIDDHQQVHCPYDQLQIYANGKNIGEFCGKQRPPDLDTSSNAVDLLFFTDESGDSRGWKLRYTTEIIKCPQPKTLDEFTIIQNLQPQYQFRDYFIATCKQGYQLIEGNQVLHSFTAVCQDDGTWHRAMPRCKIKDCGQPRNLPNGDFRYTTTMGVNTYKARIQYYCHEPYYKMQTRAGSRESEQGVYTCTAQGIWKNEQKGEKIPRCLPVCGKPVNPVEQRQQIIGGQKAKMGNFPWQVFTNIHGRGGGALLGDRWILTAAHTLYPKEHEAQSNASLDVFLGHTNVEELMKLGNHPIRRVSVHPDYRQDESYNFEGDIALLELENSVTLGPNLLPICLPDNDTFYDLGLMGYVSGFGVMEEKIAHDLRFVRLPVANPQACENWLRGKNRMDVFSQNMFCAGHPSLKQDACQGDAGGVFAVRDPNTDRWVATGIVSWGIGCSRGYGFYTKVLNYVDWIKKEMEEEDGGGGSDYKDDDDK
ASSAY PROCEDURE: SPR displacement (37 degrees C, pH 7.4): C1r2s2 captured by anti-His, C1q 100 nM pre-bound, antibody 500 nM at 10 micro L/min; time from antibody injection until the antibody sensorgram falls below the buffer sensorgram; competitor native human C1q

>  <BINDER>
COR0058bb-SG1148 (antibody, human IgG1, kappa, V domains shown, Anti-C1r antibody) VH: QSVEESGGRLVTPGTPLTLTCTASGFDISNYNMQWVRQSPGKGLEWIGIIWSGGYTDYANWAKGRFTISATSTTVDLKSTSPTTEDTATYFCARQGANFGDYTVDLWGPGTLVTVSS VL: AYDMTQTPASVEVAVGGTVTIKCQASQSIRSSLAWYQQKPGQRPKLLIYRASTLASGVSSRFKGSGSGTQFTLTISGVECADAATYYCQQGYSNINVDNTFGGGTKVEIKR

>  <Time point of crossover (post-injection) [s]>
235

$$$$
>  <BINDER>
COR0011bb-SG1148 (antibody, human IgG1, kappa, V domains shown, Anti-C1r antibody) VH: QSLEESGGRLVTPGTPLTLTCTASGFTFSGYYMCWVRQTPGKGLEYIGIIASSGNTYYANWAKGRFTISKTSSTTVDLKMTSLTTEDTATYFCAKPESDYVNGMGLWGPGTLVTVSS VL: DIVMTQTPASVSDPVGGTVTIKCQASQSIYNLLSWYQQKPGQRPKLLIYDASKLASGVPSRFKGSGYGTDFTLTISDLGCADAATYYCQSNYGYSRTDDTFFYGFGGGTKVEIKR

>  <Time point of crossover (post-injection) [s]>
613

$$$$
>  <BINDER>
COR0208cc-SG1148 (antibody, human IgG1, kappa, V domains shown, Anti-C1r antibody; also called COR208; COR208cc(-SG1148)) VH: QSVEESGGRLVTPGTPLTLTCTVSGFSLSNYYMNWVRQAPGKGLEWIGIIASDDNTWYASWAKGRFTISKTSTTVDLKITSPTTEDTATYFCARDLDVGYGSGWYDLWGQGTLVTVSS VL: AAVLTQTPSPVSVAVGGTVTINCQASQSVYNNNYLAWYQQEPGHRPKLLIYRASKLASGVPSRFSGSGSGTQFTLTISGVQCDDAATYYCLGGYDDFTDTTFGGGTKVEIKR

>  <Time point of crossover (post-injection) [s]>
197

$$$$
